# Target system: insulin subtype A receptor (IR-A) (Homo sapiens)
# Construct: expressed in transfected cells; host or cells: HEK293
# Sequence (P06213 28-1370 isoform P06213-2 limits assumed): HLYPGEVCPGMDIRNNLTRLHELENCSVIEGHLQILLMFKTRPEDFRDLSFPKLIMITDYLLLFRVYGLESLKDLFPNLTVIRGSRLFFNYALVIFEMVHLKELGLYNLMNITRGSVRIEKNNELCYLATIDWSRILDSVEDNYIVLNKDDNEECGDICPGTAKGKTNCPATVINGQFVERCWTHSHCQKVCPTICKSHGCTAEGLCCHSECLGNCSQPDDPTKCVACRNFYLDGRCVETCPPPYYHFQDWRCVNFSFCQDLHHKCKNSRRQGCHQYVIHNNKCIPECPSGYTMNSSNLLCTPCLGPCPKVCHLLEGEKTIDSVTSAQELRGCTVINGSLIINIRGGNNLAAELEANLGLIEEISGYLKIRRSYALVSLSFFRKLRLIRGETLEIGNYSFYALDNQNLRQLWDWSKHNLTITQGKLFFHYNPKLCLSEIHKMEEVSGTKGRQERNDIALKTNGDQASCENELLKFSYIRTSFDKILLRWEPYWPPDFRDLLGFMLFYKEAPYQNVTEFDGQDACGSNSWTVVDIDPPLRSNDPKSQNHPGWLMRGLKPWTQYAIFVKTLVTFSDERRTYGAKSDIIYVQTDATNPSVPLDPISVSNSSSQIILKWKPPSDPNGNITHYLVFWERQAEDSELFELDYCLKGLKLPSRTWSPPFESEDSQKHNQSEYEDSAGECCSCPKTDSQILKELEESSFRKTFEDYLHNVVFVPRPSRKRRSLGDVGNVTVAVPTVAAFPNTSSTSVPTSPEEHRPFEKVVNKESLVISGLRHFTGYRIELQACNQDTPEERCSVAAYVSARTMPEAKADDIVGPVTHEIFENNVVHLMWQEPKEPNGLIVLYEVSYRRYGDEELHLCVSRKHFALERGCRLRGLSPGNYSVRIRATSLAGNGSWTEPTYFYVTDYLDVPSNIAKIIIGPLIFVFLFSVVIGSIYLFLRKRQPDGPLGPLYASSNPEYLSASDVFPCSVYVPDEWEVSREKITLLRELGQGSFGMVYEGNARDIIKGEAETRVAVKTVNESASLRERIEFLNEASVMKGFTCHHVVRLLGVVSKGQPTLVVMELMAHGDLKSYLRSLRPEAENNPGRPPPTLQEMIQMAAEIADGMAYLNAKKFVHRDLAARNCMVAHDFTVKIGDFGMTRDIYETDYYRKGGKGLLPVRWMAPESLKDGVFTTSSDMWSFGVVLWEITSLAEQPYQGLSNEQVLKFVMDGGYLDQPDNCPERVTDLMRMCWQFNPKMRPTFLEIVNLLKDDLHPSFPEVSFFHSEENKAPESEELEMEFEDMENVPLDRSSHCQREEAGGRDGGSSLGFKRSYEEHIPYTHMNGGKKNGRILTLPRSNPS
# Sequence (P06213 763-1382 partner limits assumed): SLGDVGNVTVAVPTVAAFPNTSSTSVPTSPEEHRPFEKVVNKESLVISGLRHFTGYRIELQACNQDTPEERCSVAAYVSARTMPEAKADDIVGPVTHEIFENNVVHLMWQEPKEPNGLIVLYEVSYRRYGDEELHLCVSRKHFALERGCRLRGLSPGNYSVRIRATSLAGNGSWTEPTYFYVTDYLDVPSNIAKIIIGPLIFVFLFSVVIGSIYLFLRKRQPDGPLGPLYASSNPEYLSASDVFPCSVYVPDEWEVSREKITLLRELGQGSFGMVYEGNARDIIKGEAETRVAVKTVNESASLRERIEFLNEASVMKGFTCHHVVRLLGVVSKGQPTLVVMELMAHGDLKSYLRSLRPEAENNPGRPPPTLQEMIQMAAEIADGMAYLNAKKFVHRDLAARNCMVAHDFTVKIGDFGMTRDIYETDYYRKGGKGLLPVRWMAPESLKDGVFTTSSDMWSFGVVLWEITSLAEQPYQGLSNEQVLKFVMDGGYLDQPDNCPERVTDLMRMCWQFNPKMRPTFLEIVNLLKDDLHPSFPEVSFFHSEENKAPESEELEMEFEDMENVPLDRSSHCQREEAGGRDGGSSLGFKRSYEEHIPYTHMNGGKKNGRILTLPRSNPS
# Protocol: Insulin subtype A receptor phosphorylation, receptor transfected HEK293 cells
# Format: cell-based
# Run parameters: read-out: Phosphorylation at Insulin Receptor Subtype A (IC50); Table 16A
# Procedure: Color development was stopped 5 min later by adding 0.05 ml 1 N HCl. Absorbance at 450 nm was measured on Titertek Multiscan MCC340 (ThermoFisher, Pittsburgh, Pa.). […]
Readout kind: IC50

Ask | Please look at this substance and report its IC50: DP20 random: CTP linker sequence randomized; linking peptide PPRPPQSASPPDLSPLSGTPSRPSLS; SEQ ID NO: 69 (listed as Homo sapiens)
Reply | 8.08 nM
